Data origin, for the record: the supplement of paper PMC10567573

- EXPERIMENT_DESCRIPTION: protein stability index of a GFP-peptide fusion (GPS, HEK-293T) (PSI 1-6); higher = more stable;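 also: 24-mer peptide tiles fused after GFP, lentivirally expressed, FACS-sorted into six equal bins by GFP/DsRed ratio, decoded by Illumina sequencing, PSI is the read-weighted mean bin number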
- MEASUREMENT_SETUP: treatment: MLN4924 1 uM, 8 h; c terminus: a fixed tail appended
protein stability index vs 4: at or above is Met, below is Not met.

Worked cases, answers included:
MACROMOLECULE_SEQUENCE	ANSWER_LABEL
TPVSYRMAKTLVFSKVKTSLGLDH [ACSBG2]	Not met
SVAHLPWRMLTYKALNTFIDDLFA [CLPTM1]	Not met
KAEILESVIKNYEDHFPLLFSEAS [MAGEA10]	Not met
PSETGNTFVSGGCDKKAMVWDMRS [GNB5]	Not met
EPREFSSRNFGVRNQGNFSVVGTV [ZC2HC1C]	Not met
AMETDGPLFEDVQMLRKTVKDEAH [PPP2R5C]	Met
HARLRLSADRLTVRCGLLGSLGPV [TRIM14]	Not met
SVINNGHNQKVHMHMVDLMSSIIC [PDS5B]	Not met
VKVPTTLAEYCIKTKVPSNDNSSD [UBE2R2]	Met
GQENDATSPHFSTRHEGSFQVPVL [CD69]	Not met

Ask: Is protein stability index for VVGNWQYFFPVIFSKASDSLQLVF [MAGEA6] at or above 4?
Reply: Not met

Ask: Can you check PVSLSASQSWHTESLPVSLGPESW [BCL2L13] next?
Reply: Not met

Ask: Can you check VRCEALTGELETLKERCAQDACQA [CCDC89] next?
Reply: Met

====

- EXPERIMENT_DESCRIPTION: protein stability index of a GFP-peptide fusion (GPS, HEK-293T) (PSI 1-6); higher = more stable
- MEASUREMENT_SETUP: treatment: DMSO; c terminus: a fixed tail appended
protein stability index vs 3: at or above is satisfied, below is not satisfied.

Worked cases, answers included:
MACROMOLECULE_SEQUENCE	ANSWER_LABEL
CPRPCRESAFKLSTGTSRWPSAKS [SCNN1D]	not satisfied
TTNVKSASRQKTSLGIELHCNVSN [ZNF396]	satisfied
LLHMPQPVNPELTAGPITGLVYRL [TRIM43]	not satisfied
VRRLQALRLEREEYVLLKALALAN [ESRRA]	not satisfied
IGRDPPAETQPQNPPAQPAPNAWQ [CLPTM1]	satisfied

Ask: Is protein stability index for VDIKPANMEELTEVITAAEFHPHH [PPP2R2B] at or above 3?
Reply: satisfied

Ask: Can you check MQRKQSLGKPDQKDLNENLAATQG [DLC1] next?
Reply: satisfied

Ask: Can you check QGDPAFPEMNGNGAVAPMDFTTAA [NOL4L] next?
Reply: satisfied

Ask: Can you check CLKKFNARRKLKGAILTTMLATRN [CAMK2A] next?
Reply: satisfied

Ask: Can you check KGRHHRGRGGEPRAYFMSDTREEK [CHGB] next?
Reply: satisfied

Ask: Can you check SPGIGAVYLANQAKNQSDEAKEAK [RTP4] next?
Reply: satisfied

====

Below is a list of entries, each paired with its recorded protein stability index value.
- EXPERIMENT_DESCRIPTION: protein stability index of a GFP-peptide fusion (GPS, HEK-293T) (PSI 1-6); higher = more stable
- MEASUREMENT_SETUP: treatment: MLN4924 1 uM, 8 h; c terminus: a fixed tail appended

Completed entries (count: 5):
MACROMOLECULE_SEQUENCE	protein stability index
LYQTELVENECYQVFLDRINRADY [TOR1AIP2]	2.71
AYEFADRDEVRFFKGNKYWAVQGQ [MMP1]	2.74
PISEKAKDLILRFCIDSENRIGNS [STK38L]	2.05
RWDLSPEQIKTRTEELIVQTKQVY [NLN]	3.8
AVIAQQRRKPDPPKDENERSTCNV [DLC1]	5.12

Ask: For the sequence TLLKKISEASKAFQMEKIEHGYEN [TRIM55] , what protein stability index is on record?
Reply: 2.4

Ask: Can you check SPLLETFSDLQVYSYRRLGEEALS [SLC22A15] next?
Reply: 2.27
